Source: paper PMC7589783

- Test system: MCF-7 breast cancer cells
- Protocol: MTT cell viability assay in MCF-7 cells
- Type: cell-based
- Reported Conditions: Homo sapiens, MCF7, treatment time not given, read-out: IC50, cytotoxic activity, MCF-7
Reported Property: pIC50
Give bare numbers, as −log10 of the molar value.

Task: Query pIC50 for O=C(O)c1ccc(/N=C/c2cc(O)ccc2O)cc1 [Compound 4]
Output: 4.30
